Measured values drawn from paper PMC7179439 for this set.

# Tested on: laccase from Trametes versicolor
# assay: Laccase enzyme inhibition assay with syringaldazine as substrate
# Type: biochemical
# conditionDetails: Lineweaver-Burk transformation
recordedEndpoint: type of inhibition

A selection of reference data follows.
molecule	observedValue
COc1cc(/C=N/NC(=O)c2ccc(O)cc2)ccc1O	competitive
CC(C)(C)c1cccc(/C=N/NC(=O)c2ccc(O)cc2)c1O	competitive
O=C(N/N=C/c1ccccc1O)c1ccc(O)cc1	competitive
Cc1cc(/C=N/NC(=O)c2ccc(O)cc2)c(O)c(C(C)(C)C)c1	competitive
[N-]=[N+]=[N-].[Na+] [NaN3, sodium azide]	non-competitive
O=C(N/N=C/c1cccc(-c2ccccc2)c1O)c1ccc(O)cc1	competitive
Cc1cc(/C=N/NC(=O)c2cccc(O)c2)c(O)c(C(C)(C)C)c1	non-competitive
Cc1ccc(/C=N/NC(=O)c2ccc(O)cc2)cc1	competitive

Lookup: I am curious: what type of inhibition value has been reported for COc1cccc(/C=N/NC(=O)c2ccc(O)cc2)c1 ?
Found: competitive

----------
# Test system: laccase from Trametes versicolor
# assay: Laccase enzyme inhibition assay with syringaldazine as substrate
# Format: biochemical
# Parameters: key: a: competitive; b: uncompetitive; c: not determined; d: non-competitive
# conditionDetails: Lineweaver-Burk transformation
recordedEndpoint: The type of inhibition

compound	The type of inhibition
O.O=C(N/N=C/c1cccc(O)c1)c1ccc(O)cc1	a
Cc1ccc(/C=N/NC(=O)c2ccc(O)cc2)cc1	a
O=C(N/N=C/c1ccccc1O)c1ccc(O)cc1	a
O=C(N/N=C/c1ccc(O)cc1O)c1ccc(O)cc1	b
O=C(N/N=C/c1ccc(O)cc1)c1ccc(O)cc1	b
[N-]=[N+]=[N-].[Na+] [NaN3, sodium azide]	d
COc1cccc(/C=N/NC(=O)c2ccc(O)cc2)c1	a
O=C(N/N=C/CCc1ccccc1)c1ccc(O)cc1	b
CC(C)(C)c1cc(/C=N/NC(=O)c2ccc(O)cc2)c(O)c(C(C)(C)C)c1	b
CC(C)(C)c1cccc(/C=N/NC(=O)c2ccc(O)cc2)c1O	a

Shifting focus to the compound that follows.
Lookup: // The type of inhibition lookup, key: Cc1cc(/C=N/NC(=O)c2cccc(O)c2)c(O)c(C(C)(C)C)c1
Found: d

----------
Some compounds, each annotated with its measured melting point.

# count of solved cases: 5
compound	recordedEndpoint	observedValue
O=C(N/N=C/c1cc(Br)ccc1O)c1ccc(O)cc1	melting point	276 to 278 °C
COc1cc(O)c(/C=N/NC(=O)c2ccc(O)cc2)c(OC)c1	melting point	231.5 to 234.5 °C
CC(C)(C)c1cccc(/C=N/NC(=O)c2ccc(O)cc2)c1O	melting point	240 to 242 °C
CC(C)(C)c1cc(/C=N/NC(=O)c2ccc(O)cc2)c(O)c(C(C)(C)C)c1	melting point	274.5 to 275.5 °C
COc1cccc(O)c1/C=N/NC(=O)c1ccc(O)cc1	melting point	256.5 to 257.5 °C

Lookup: Entry Cc1cc(/C=N/NC(=O)c2ccc(O)cc2)c(O)c(CO)c1 : reported melting point = ?
Found: 229 to 230 °C

Lookup: Name the reported melting point value associated with the compound Cc1ccc(C(C)C)c(O)c1/C=N/NC(=O)c1ccc(O)cc1
Found: 258.5 to 260.5 °C

Lookup: Record request: melting point value, item O=C(N/N=C/c1ccccc1S(=O)(=O)[O-])c1ccc(O)cc1.[Na+]
Found: 251 °C (dec.)

Lookup: So what does the record say about melting point for Cc1cc(/C=N/NC(=O)c2cccc(O)c2)c(O)c(C(C)(C)C)c1 ?
Found: 240 to 242.5 °C

Lookup: What value of melting point has been reported for the following compound? COc1cccc(/C=N/NC(=O)c2ccc(O)cc2)c1 (hydrate or solvate)
Found: 210 to 212 °C

----------
recordedEndpoint: melting point

compound	observedValue
Cc1cc(CO)cc(/C=N/NC(=O)c2ccc(O)cc2)c1O [3b]	266 °C (dec.)

Lookup: Please look up its melting point: COc1ccc(C(=O)N/N=C/c2cccc(-c3ccccc3)c2O)cc1 [2h]
Found: 240 to 242.5 °C

Lookup: Report melting point for COc1cc(/C=N/NC(=O)c2ccc(O)cc2)ccc1O [2g] please.
Found: 218.5 to 220 °C

----------
# targetOrTestSystem: laccase from Trametes versicolor
# assay: Laccase enzyme inhibition assay with syringaldazine as substrate
# conditionDetails: 25 °C, pH 5.3, syringaldazine substrate, 6.25% v/v organic co-solvent
# Method: The activity of laccase was determined using the procedure described by Leonowicz and Grzywnowicz. […] Laccase activity was determined spectrophotometrically (UV-VIS 1800, Shimadzu, Reinach, Switzerland) by monitoring the changes in absorbance at 525 nm resulted from oxidation of the substrate syringaldazine with an extinction coefficient ε0 = 65000 M^−1·cm^−1 [99]. […]
pKi: −log10 of the molar value.
Reported values of pKi for individual entries

Examples from the recorded data:
compoundStructure	targetOrTestSystem	pKi
COc1cc(O)c(/C=N/NC(=O)c2ccc(O)cc2)c(OC)c1	laccase from Trametes versicolor	≤ 3.00
COc1cccc(O)c1/C=N/NC(=O)c1ccc(O)cc1	laccase from Trametes versicolor	≤ 3.00

Lookup: pKi for COc1ccc(C(=O)N/N=C/c2cccc(-c3ccccc3)c2O)cc1 ?
Found: ≤ 3.00
